As shown below, each of these compounds has a reported inhibition at 1 µM value.
# system name: Somatostatin Receptor (SSTR) Subtype SSTR 5 (Homo sapiens)
# Construct: expressed in transfected cells; host or cells: CHO cells
# assay text: Inhibition of radioactive iodinated somatostatin (SRIF-14) binding, CHO cells expressing SSTR 5
# test settings: Conc. 10^-6 M, read-out: percent inhibition of radioactive iodinated somatostatin (SRIF-14) binding, SSTR 5
Numbered stars: 1 amine (or outer) side, 2 acyl side, 3 side chain; on linkers, the order of the positions; unused ones are H or OH. Bridge positions count the residues as written; N and C are the ends. Square brackets hold non-standard residues; d marks the D form. Peptide text beside a SMILES is read from it. NGly(3-aminopropyl) = O=C(CN(CCCN[*:3])[*:1])[*:2]; N(CH2CH2CO)Gly = O=C(CN(CCC(=O)[*:3])[*:1])[*:2]
readout type: inhibition at 1 µM

• C[C@@H](O)[C@H](NC(=O)CN1CCCNC(=O)CCN(C(=O)[C@H](N)Cc2ccccc2)CC(=O)N[C@@H](Cc2ccccc2)C(=O)N[C@H](Cc2c[nH]c3ccccc23)C(=O)N[C@@H](CCCCN)C(=O)N[C@@H]([C@@H](C)O)C1=O)C(N)=O [PTR 3007] (H-[dF][N(CH2CH2CO)Gly]F[dW]KT[NGly(3-aminopropyl)]T-NH2; lactam 2-7) = 19%
• C[C@@H](O)[C@H](NC(=O)CN1CCCNC(=O)CN(C(=O)[C@H](N)Cc2ccccc2)CC(=O)N[C@@H](Cc2ccccc2)C(=O)N[C@H](Cc2c[nH]c3ccccc23)C(=O)N[C@@H](CCCCN)C(=O)N[C@@H]([C@@H](C)O)C1=O)C(N)=O [PTR 3004] = 14%
• C[C@@H](O)[C@H](NC(=O)CNC(=O)[C@@H](NC(=O)[C@H](CCCCN)NC(=O)[C@@H](Cc1c[nH]c2ccccc12)NC(=O)[C@H](Cc1ccccc1)NC(=O)CNC(=O)[C@H](N)Cc1ccccc1)[C@@H](C)O)C(N)=O [PTR 3003] (H-[dF]GF[dW]KTGT-NH2) = 55%
• C[C@@H](O)[C@H](NC(=O)CN1CCC(=O)NCCCN(C(=O)[C@H](N)Cc2ccccc2)CC(=O)N[C@@H](Cc2ccccc2)C(=O)N[C@H](Cc2c[nH]c3ccccc23)C(=O)N[C@@H](CCCCN)C(=O)N[C@@H]([C@@H](C)O)C1=O)C(N)=O [PTR 3010] (H-[dF][NGly(3-aminopropyl)]F[dW]KT[N(CH2CH2CO)Gly]T-NH2; lactam 2-7) = 63%

====

As shown below, each of these molecules has a reported inhibition at 1 µM value.
# system name: Somatostatin Receptor (SSTR) Subtype SSTR 2B (Homo sapiens)
# Construct: expressed in transfected cells; host or cells: CHO cells
# Sequence (P30874 1-356 isoform P30874-2): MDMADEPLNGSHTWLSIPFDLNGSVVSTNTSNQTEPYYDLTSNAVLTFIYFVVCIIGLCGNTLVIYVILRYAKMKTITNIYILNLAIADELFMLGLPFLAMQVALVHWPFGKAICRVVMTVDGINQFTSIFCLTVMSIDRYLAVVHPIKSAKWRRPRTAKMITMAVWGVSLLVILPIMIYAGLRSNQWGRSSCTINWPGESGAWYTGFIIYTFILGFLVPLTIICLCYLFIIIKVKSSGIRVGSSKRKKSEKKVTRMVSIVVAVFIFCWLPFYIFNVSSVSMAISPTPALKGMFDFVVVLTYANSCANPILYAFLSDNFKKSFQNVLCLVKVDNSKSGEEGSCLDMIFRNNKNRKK
# assay text: Inhibition of radioactive iodinated somatostatin (SRIF-14) binding, CHO cells expressing SSTR 2B
# test settings: Conc. 10^-6 M, read-out: percent inhibition of radioactive iodinated somatostatin (SRIF-14) binding, SSTR 2B
Numbered stars: 1 amine (or outer) side, 2 acyl side, 3 side chain; on linkers, the order of the positions; unused ones are H or OH. Bridge positions count the residues as written; N and C are the ends. Square brackets hold non-standard residues; d marks the D form. Peptide text beside a SMILES is read from it. NGly(3-aminopropyl) = O=C(CN(CCCN[*:3])[*:1])[*:2]; N(CH2CH2CO)Gly = O=C(CN(CCC(=O)[*:3])[*:1])[*:2]
readout type: inhibition at 1 µM (%)

* C[C@@H](O)[C@H](NC(=O)CN1CCC(=O)NCCCN(C(=O)[C@H](N)Cc2ccccc2)CC(=O)N[C@@H](Cc2ccccc2)C(=O)N[C@H](Cc2c[nH]c3ccccc23)C(=O)N[C@@H](CCCCN)C(=O)N[C@@H]([C@@H](C)O)C1=O)C(N)=O [PTR 3010] (H-[dF][NGly(3-aminopropyl)]F[dW]KT[N(CH2CH2CO)Gly]T-NH2; lactam 2-7) | 0
* C[C@@H](O)[C@H](NC(=O)CN1CCCNC(=O)CCN(C(=O)[C@H](N)Cc2ccccc2)CC(=O)N[C@@H](Cc2ccccc2)C(=O)N[C@H](Cc2c[nH]c3ccccc23)C(=O)N[C@@H](CCCCN)C(=O)N[C@@H]([C@@H](C)O)C1=O)C(N)=O [PTR 3007] (H-[dF][N(CH2CH2CO)Gly]F[dW]KT[NGly(3-aminopropyl)]T-NH2; lactam 2-7) | 0
* C[C@@H](O)[C@H](NC(=O)CNC(=O)[C@@H](NC(=O)[C@H](CCCCN)NC(=O)[C@@H](Cc1c[nH]c2ccccc12)NC(=O)[C@H](Cc1ccccc1)NC(=O)CNC(=O)[C@H](N)Cc1ccccc1)[C@@H](C)O)C(N)=O [PTR 3003] (H-[dF]GF[dW]KTGT-NH2) | 16
* C[C@@H](O)[C@H](NC(=O)CN1CCCNC(=O)CN(C(=O)[C@H](N)Cc2ccccc2)CC(=O)N[C@@H](Cc2ccccc2)C(=O)N[C@H](Cc2c[nH]c3ccccc23)C(=O)N[C@@H](CCCCN)C(=O)N[C@@H]([C@@H](C)O)C1=O)C(N)=O | 0

====

# system name: Somatostatin Receptor (SSTR) Subtype SSTR 5 (Homo sapiens)
# Construct: expressed in transfected cells; host or cells: CHO cells
# assay text: Inhibition of radioactive iodinated somatostatin (SRIF-14) binding, CHO cells expressing SSTR 5
# test settings: Conc. 10^-8 M, read-out: percent inhibition of radioactive iodinated somatostatin (SRIF-14) binding, SSTR 5
Numbered stars: 1 amine (or outer) side, 2 acyl side, 3 side chain; on linkers, the order of the positions; unused ones are H or OH. Bridge positions count the residues as written; N and C are the ends. Square brackets hold non-standard residues; d marks the D form. Peptide text beside a SMILES is read from it. NGly(3-aminopropyl) = O=C(CN(CCCN[*:3])[*:1])[*:2]; N(CH2CH2CO)Gly = O=C(CN(CCC(=O)[*:3])[*:1])[*:2]
As shown below, each of these molecules has a reported inhibition at 0.01 µM value.
readout type: inhibition at 0.01 µM (%)

• C[C@@H](O)[C@H](NC(=O)CNC(=O)[C@@H](NC(=O)[C@H](CCCCN)NC(=O)[C@@H](Cc1c[nH]c2ccccc12)NC(=O)[C@H](Cc1ccccc1)NC(=O)CNC(=O)[C@H](N)Cc1ccccc1)[C@@H](C)O)C(N)=O [PTR 3003] (H-[dF]GF[dW]KTGT-NH2) = 0
• C[C@@H](O)[C@H](NC(=O)CN1CCCNC(=O)CCN(C(=O)[C@H](N)Cc2ccccc2)CC(=O)N[C@@H](Cc2ccccc2)C(=O)N[C@H](Cc2c[nH]c3ccccc23)C(=O)N[C@@H](CCCCN)C(=O)N[C@@H]([C@@H](C)O)C1=O)C(N)=O [PTR 3007] (H-[dF][N(CH2CH2CO)Gly]F[dW]KT[NGly(3-aminopropyl)]T-NH2; lactam 2-7) = 0
• C[C@@H](O)[C@H](NC(=O)CN1CCC(=O)NCCCN(C(=O)[C@H](N)Cc2ccccc2)CC(=O)N[C@@H](Cc2ccccc2)C(=O)N[C@H](Cc2c[nH]c3ccccc23)C(=O)N[C@@H](CCCCN)C(=O)N[C@@H]([C@@H](C)O)C1=O)C(N)=O [PTR 3010] (H-[dF][NGly(3-aminopropyl)]F[dW]KT[N(CH2CH2CO)Gly]T-NH2; lactam 2-7) = 9
• C[C@@H](O)[C@H](NC(=O)CN1CCCNC(=O)CN(C(=O)[C@H](N)Cc2ccccc2)CC(=O)N[C@@H](Cc2ccccc2)C(=O)N[C@H](Cc2c[nH]c3ccccc23)C(=O)N[C@@H](CCCCN)C(=O)N[C@@H]([C@@H](C)O)C1=O)C(N)=O [PTR 3004] = 0

====

# system name: Somatostatin Receptor (SSTR) Subtype SSTR 5 (Homo sapiens, UniProt P35346)
# Construct: expressed in transfected cells; host or cells: CHO cells
# Sequence (P35346 whole entry): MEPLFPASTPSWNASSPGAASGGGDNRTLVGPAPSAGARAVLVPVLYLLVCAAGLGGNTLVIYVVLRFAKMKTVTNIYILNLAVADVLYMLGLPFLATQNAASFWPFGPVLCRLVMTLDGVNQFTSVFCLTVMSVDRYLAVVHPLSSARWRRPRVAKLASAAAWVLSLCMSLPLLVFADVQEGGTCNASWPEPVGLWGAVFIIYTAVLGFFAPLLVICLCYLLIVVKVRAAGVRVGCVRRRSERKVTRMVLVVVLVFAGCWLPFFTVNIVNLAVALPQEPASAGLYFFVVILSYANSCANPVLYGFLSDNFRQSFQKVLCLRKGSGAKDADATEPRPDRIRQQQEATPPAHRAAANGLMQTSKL
# assay text: Inhibition of radioactive iodinated somatostatin (SRIF-14) binding, CHO cells expressing SSTR 5
# test settings: Conc. 10^-7 M, read-out: percent inhibition of radioactive iodinated somatostatin (SRIF-14) binding, SSTR 5
Numbered stars: 1 amine (or outer) side, 2 acyl side, 3 side chain; on linkers, the order of the positions; unused ones are H or OH. Bridge positions count the residues as written; N and C are the ends. Square brackets hold non-standard residues; d marks the D form. Peptide text beside a SMILES is read from it. NGly(3-aminopropyl) = O=C(CN(CCCN[*:3])[*:1])[*:2]; N(CH2CH2CO)Gly = O=C(CN(CCC(=O)[*:3])[*:1])[*:2]
As shown below, each of these compounds has a reported inhibition at 0.1 µM value.
readout type: inhibition at 0.1 µM (%)

• C[C@@H](O)[C@H](NC(=O)CNC(=O)[C@@H](NC(=O)[C@H](CCCCN)NC(=O)[C@@H](Cc1c[nH]c2ccccc12)NC(=O)[C@H](Cc1ccccc1)NC(=O)CNC(=O)[C@H](N)Cc1ccccc1)[C@@H](C)O)C(N)=O [PTR 3003] (H-[dF]GF[dW]KTGT-NH2) = 20
• C[C@@H](O)[C@H](NC(=O)CN1CCC(=O)NCCCN(C(=O)[C@H](N)Cc2ccccc2)CC(=O)N[C@@H](Cc2ccccc2)C(=O)N[C@H](Cc2c[nH]c3ccccc23)C(=O)N[C@@H](CCCCN)C(=O)N[C@@H]([C@@H](C)O)C1=O)C(N)=O [PTR 3010] (H-[dF][NGly(3-aminopropyl)]F[dW]KT[N(CH2CH2CO)Gly]T-NH2; lactam 2-7) = 26
• C[C@@H](O)[C@H](NC(=O)CN1CCCNC(=O)CN(C(=O)[C@H](N)Cc2ccccc2)CC(=O)N[C@@H](Cc2ccccc2)C(=O)N[C@H](Cc2c[nH]c3ccccc23)C(=O)N[C@@H](CCCCN)C(=O)N[C@@H]([C@@H](C)O)C1=O)C(N)=O = 0
• C[C@@H](O)[C@H](NC(=O)CN1CCCNC(=O)CCN(C(=O)[C@H](N)Cc2ccccc2)CC(=O)N[C@@H](Cc2ccccc2)C(=O)N[C@H](Cc2c[nH]c3ccccc23)C(=O)N[C@@H](CCCCN)C(=O)N[C@@H]([C@@H](C)O)C1=O)C(N)=O [PTR 3007] (H-[dF][N(CH2CH2CO)Gly]F[dW]KT[NGly(3-aminopropyl)]T-NH2; lactam 2-7) = 9
